Target: T1, Chryseobacterium sp-62563 deamidase polypeptide (second polypeptide, deamidase domain), wildtype (Chryseobacterium sp-62563)
T1 sequence: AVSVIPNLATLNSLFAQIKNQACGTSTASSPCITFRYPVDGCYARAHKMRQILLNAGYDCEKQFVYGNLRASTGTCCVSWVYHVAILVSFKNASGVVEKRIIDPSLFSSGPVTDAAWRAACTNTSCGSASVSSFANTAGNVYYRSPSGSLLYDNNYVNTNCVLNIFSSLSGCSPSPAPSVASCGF
Assay: cell-based or functional assay
Quantity measured: Relative activity of maturated deamidase (% initial rate)

P. Chryseobacterium sp-62563 propeptide Q43R (protein) NQDPNLVAKESNETAMKDFGKTVPVGIEKEDGKFKISFMVTARPYEIKDSKENAAYISMIKTAVENETPIHVFLKANTNEIAKVDKATDDDIRYFKSVFTKEVKEENRK
Q. Chryseobacterium sp-62563 propeptide D18K (protein) NQDPNLVAKESNETAMKKFGKTVPVGIEKEDGKFKISFMVTAQPYEIKDSKENAAYISMIKTAVENETPIHVFLKANTNEIAKVDKATDDDIRYFKSVFTKEVKEENRK
Choose between P and Q : whose measured Relative activity of maturated deamidase (% initial rate) value is numerically larger? // output: label of the selected item
P
